- ASSAY_SUMMARY: Proteolysis during production detected using mass spectroscopy
- Format: physicochemical
- ASSAY_SETUP: proteolytic stability
REPORTED_PROPERTY: Proteolysis During Production?

molecule="APL-H: Leader-Fc-linker fusion of apelin analogue QRPRLSHKGPMHW (P12H, F13W) (protein) MRAWIFFLLCLAGRALADKTHTSPPSPAPEAAGGPSVFLFPPKPKDTLMISRTPEVTCVVVDVSHEDPEVKFNWYVDGVEVHNAKTKPREEQYNSTYRVVSVLTVLHQDWLNGKEYKCKVSNKALPAPIEKTISKAKGQPREPQVYTLPPSREEMTKNQVNLTCLVKGFYPSDIAVEWESNGQPENNYKTTPPVLDSDGSFFLNSTLTVDKSRWQQGNVFSCSVMHEALHNHYTQKSLSLSPGKGGGGSGGGGSGGGGSQRPRLSHKGPMHW" result=No
